// data source = the RNAGym collection of RNA variant scans (doi:10.7554/elife.80360)

B1: Hairpin Ribozyme (parent)
chain: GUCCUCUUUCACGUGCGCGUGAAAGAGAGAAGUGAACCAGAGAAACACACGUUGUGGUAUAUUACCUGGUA

- Variants of: B1
- Protocol Notes: self-cleavage, relative activity (ratio to wild type); higher = more cleavage; co-transcriptional
Decision: self-cleavage >= 0.4 yields true (1), all other cases yield false (0).

Mutant Label: G27U A47G
Assigned Category: false (0)

Mutant Label: G15C G56U
Assigned Category: false (0)

Mutant Label: C10A A11C
Assigned Category: true (1)

Mutant Label: A30U A44U
Assigned Category: false (0)

Mutant Label: A22G A24U
Assigned Category: true (1)

Mutant Label: C16G A47G
Assigned Category: false (0)

Mutant Label: C6G C38A
Assigned Category: false (0)

Mutant Label: U52C U62C
Assigned Category: false (0)

Mutant Label: G27U A28C
Assigned Category: false (0)

Mutant Label: C16U U55A
Assigned Category: false (0)

Mutant Label: A22G G25A
Assigned Category: true (1)

Mutant Label: A43G U67C
Assigned Category: false (0)

Mutant Label: G19C G42U
Assigned Category: false (0)

Mutant Label: U20G U58C
Assigned Category: true (1)

Mutant Label: G25U A30C
Assigned Category: false (0)

Mutant Label: C3U G19A
Assigned Category: true (1)

Mutant Label: G40C U63A
Assigned Category: false (0)

Mutant Label: G17U A49G
Assigned Category: true (1)

Mutant Label: G42A A47G
Assigned Category: false (0)

Mutant Label: G34U A64G
Assigned Category: true (1)

Mutant Label: G13C G15C
Assigned Category: true (1)

Mutant Label: U2G G17C
Assigned Category: false (0)

Mutant Label: A23U A36C
Assigned Category: true (1)

Mutant Label: G27C C50A
Assigned Category: false (0)

Mutant Label: G17A G57C
Assigned Category: false (0)

Mutant Label: C3G G32C
Assigned Category: false (0)

Mutant Label: U5A A24G
Assigned Category: false (0)

Mutant Label: G42C U62A
Assigned Category: false (0)

Mutant Label: U5A A71C
Assigned Category: true (1)

Mutant Label: G34A U67C
Assigned Category: true (1)

Mutant Label: A59U U60A
Assigned Category: false (0)

Mutant Label: C18G U58C
Assigned Category: true (1)

Mutant Label: A49C C65A
Assigned Category: false (0)

Mutant Label: A23G A71G
Assigned Category: true (1)

Mutant Label: C48A U70C
Assigned Category: false (0)

Mutant Label: G25U U62G
Assigned Category: false (0)

Mutant Label: U9A A61C
Assigned Category: false (0)

Mutant Label: G32C C65G
Assigned Category: false (0)

Mutant Label: C3U U58A
Assigned Category: false (0)

Mutant Label: G1A A28G
Assigned Category: false (0)

Mutant Label: A44G A47C
Assigned Category: false (0)

Mutant Label: U62A C65U
Assigned Category: false (0)

Mutant Label: C16G G54A
Assigned Category: true (1)

Mutant Label: C37A A49U
Assigned Category: false (0)

Mutant Label: A49C
Assigned Category: false (0)

Mutant Label: G13U A59C
Assigned Category: false (0)
